For each record, write down the corresponding IC50.
- STUDY_TARGET: Ovine COX-1 (Ovis aries, UniProt P05979)
- Construct: purchased Cayman chemical 60100
- Sequence (P05979 25-600): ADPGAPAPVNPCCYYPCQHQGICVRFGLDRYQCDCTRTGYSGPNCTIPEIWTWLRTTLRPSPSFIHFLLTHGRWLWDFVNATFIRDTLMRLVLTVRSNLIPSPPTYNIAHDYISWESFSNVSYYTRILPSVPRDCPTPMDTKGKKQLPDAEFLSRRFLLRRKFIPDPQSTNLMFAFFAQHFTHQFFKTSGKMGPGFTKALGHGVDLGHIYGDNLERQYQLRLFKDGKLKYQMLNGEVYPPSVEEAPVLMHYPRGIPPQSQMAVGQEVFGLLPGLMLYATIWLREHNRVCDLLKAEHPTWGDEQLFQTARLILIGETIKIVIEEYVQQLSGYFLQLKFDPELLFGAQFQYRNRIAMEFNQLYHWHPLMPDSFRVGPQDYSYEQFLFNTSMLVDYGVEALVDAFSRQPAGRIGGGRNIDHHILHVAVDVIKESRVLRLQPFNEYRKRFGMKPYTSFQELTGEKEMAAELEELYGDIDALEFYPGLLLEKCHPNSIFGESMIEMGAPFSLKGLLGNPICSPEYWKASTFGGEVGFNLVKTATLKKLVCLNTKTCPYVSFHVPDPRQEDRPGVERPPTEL
- EXPERIMENTAL_DETAILS: Cyclooxygenase assay (oxygen electrode), COX-1
- Type: biochemical
- MEASUREMENT_PARAMETERS: 100 µM AA, pH 8.0, 37°C, oxygen consumption; read-out: COX-1 IC50

Consider the reported IC50 for these compounds:
>  <COMPOUND>
N#Cc1ccc(-c2ccc(CNc3ccc(N4CCCCC4)cc3)o2)cc1

>  <IC50>
> 150 µM

$$$$
>  <COMPOUND>
CC(C)(C)OC(=O)N1CCN(c2ccc(NCc3ccc(-c4ccc(C#N)cc4)o3)cc2)CC1

>  <IC50>
> 50 µM

$$$$
>  <COMPOUND>
Cc1cc(C2CCCCC2)n(O)c(=O)c1 [ciclopirox, reference compound]

>  <IC50>
> 50 µM

$$$$
>  <COMPOUND>
CC(=O)N1CCN(c2ccc(NCc3ccc(-c4cccc(Cl)c4)o3)cc2)CC1

>  <IC50>
> 150 µM

$$$$

Asked: For the compound CC(=O)N1CCN(c2ccc(NCC3COC(Cn4ccnc4)(c4ccc(Cl)cc4Cl)O3)cc2)CC1 (centres unmarked) , what IC50 is on record?
Given back: > 150 µM

###

- STUDY_TARGET: CaCYP51 (Candida albicans, UniProt P10613)
- Construct: made in house; host or cells: E. coli
- Sequence (P10613 whole entry): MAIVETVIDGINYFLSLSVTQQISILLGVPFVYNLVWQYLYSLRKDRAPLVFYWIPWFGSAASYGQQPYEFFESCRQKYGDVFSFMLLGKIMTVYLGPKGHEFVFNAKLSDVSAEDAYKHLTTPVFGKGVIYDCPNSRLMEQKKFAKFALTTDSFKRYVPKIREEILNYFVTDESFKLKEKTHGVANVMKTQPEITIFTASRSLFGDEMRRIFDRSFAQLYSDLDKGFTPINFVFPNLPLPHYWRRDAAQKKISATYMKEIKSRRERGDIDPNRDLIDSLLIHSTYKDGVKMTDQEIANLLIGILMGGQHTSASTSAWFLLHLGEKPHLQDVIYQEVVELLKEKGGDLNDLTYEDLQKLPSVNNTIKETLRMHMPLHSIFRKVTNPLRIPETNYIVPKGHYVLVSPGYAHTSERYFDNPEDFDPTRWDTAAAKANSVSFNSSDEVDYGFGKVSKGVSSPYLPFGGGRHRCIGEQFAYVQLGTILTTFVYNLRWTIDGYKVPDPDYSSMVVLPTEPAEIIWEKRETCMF
- EXPERIMENTAL_DETAILS: CYP51 reconstitution assay, CaCYP51
- Type: biochemical
MEASURED_ENDPOINT: IC50

Asked: Recorded IC50 for CC(=O)N1CCN(c2ccc(OCC3COC(Cn4ccnc4)(c4ccc(Cl)cc4Cl)O3)cc2)CC1 (stereo not shown) [ketoconazole, reference compound] with CaCYP51 (Candida albicans, UniProt P10613), please?
Given back: ~500 nM

###

- STUDY_TARGET: 5-LOX (Homo sapiens)
- Construct: made in house
- Sequence (P09917 whole entry): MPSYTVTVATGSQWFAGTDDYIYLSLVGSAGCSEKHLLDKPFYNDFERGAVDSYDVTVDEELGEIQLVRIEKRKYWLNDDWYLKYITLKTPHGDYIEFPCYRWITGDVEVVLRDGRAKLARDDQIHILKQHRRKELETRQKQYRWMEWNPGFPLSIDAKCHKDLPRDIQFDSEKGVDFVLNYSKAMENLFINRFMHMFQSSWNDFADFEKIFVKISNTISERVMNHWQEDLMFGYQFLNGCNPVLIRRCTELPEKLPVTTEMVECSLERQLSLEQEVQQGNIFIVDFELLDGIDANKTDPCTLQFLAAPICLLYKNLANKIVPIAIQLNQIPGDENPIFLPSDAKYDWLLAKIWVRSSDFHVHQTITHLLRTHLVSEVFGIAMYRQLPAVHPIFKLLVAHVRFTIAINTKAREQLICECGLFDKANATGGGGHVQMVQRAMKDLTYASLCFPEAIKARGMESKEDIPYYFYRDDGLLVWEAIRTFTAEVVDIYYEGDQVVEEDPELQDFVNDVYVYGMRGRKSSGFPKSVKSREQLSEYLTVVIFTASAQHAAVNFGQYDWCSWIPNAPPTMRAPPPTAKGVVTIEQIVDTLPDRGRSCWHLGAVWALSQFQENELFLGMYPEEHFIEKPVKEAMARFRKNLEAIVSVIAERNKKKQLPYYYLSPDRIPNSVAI
- EXPERIMENTAL_DETAILS: Pseudoperoxidase activity assay
- Type: biochemical
- MEASUREMENT_PARAMETERS: 10 µM inhibitor, 10 µM 13-HPODE; positive = loss of greater than 40% of product absorption at 234 nm
MEASURED_ENDPOINT: Reductive activity (pseudoperoxidase activity)

Consider the reported Reductive activity (pseudoperoxidase activity) for these compounds:
>  <COMPOUND>
CC(C)(C)OC(=O)N1CCN(c2ccc(OCc3ccc(-c4ccc(C#N)cc4)o3)cc2)CC1

>  <STUDY_TARGET>
5-LOX (Homo sapiens)

>  <ASSAY_RESULT>
No

$$$$
>  <COMPOUND>
CC(C)(C)OC(=O)N1CCC(c2ccc(NCc3ccc(-c4ccc(C#N)cc4)o3)cc2)CC1

>  <STUDY_TARGET>
5-LOX (Homo sapiens)

>  <ASSAY_RESULT>
No

$$$$
>  <COMPOUND>
CC(C)(C)OC(=O)N1CCN(c2ncc(NCc3ccc(-c4ccc(C#N)cc4)o3)cn2)CC1

>  <STUDY_TARGET>
5-LOX (Homo sapiens)

>  <ASSAY_RESULT>
No

$$$$
>  <COMPOUND>
CC(=O)N1CCN(c2ccc(OCC3COC(Cn4ccnc4)(c4ccc(Cl)cc4Cl)O3)cc2)CC1 (stereo not drawn) [ketoconazole, reference compound]

>  <STUDY_TARGET>
5-LOX (Homo sapiens)

>  <ASSAY_RESULT>
No

$$$$
>  <COMPOUND>
CN(Cc1ccc(-c2ccc(C#N)cc2)o1)c1ccc(N2CCN(C(=O)OC(C)(C)C)CC2)cc1

>  <STUDY_TARGET>
5-LOX (Homo sapiens)

>  <ASSAY_RESULT>
Yes

$$$$
>  <COMPOUND>
CC(C)(C)OC(=O)N1CCN(c2cnc(NCc3ccc(-c4ccc(C#N)cc4)o3)nc2)CC1

>  <STUDY_TARGET>
5-LOX (Homo sapiens)

>  <ASSAY_RESULT>
No

$$$$

With those in mind, consider the next compound.
Asked: Recorded Reductive activity (pseudoperoxidase activity) for CC(C)(C)OC(=O)N1CCN(c2ccc(NCc3ccc(-c4ccc(C#N)cc4)o3)cc2)CC1 with 5-LOX (Homo sapiens), please?
Given back: Yes
